Quick reference for half-life among some molecules
Test: Apparent elimination half life in Sprague-Dawley rat at 30 mg/kg, po
Format: ADME, organism-based
Design: dose 30 mg/kg, route oral
Settings: in vivo, read-out: beta t1/2 (converted)
The answer is to be given in h; state only the numeric part.

In the examples that follow, each entry is paired with its recorded half-life.
{"columns": ["smilesRepresentation", "unitDescriptor", "half-life"],
 "data": [
  ["C#CCN(CC)C(=O)[C@@]1(c2cccs2)C[C@H]1CN", "h", 1.9],
  ["C=C(F)CN(CC)C(=O)[C@@]1(c2cccs2)C[C@H]1CN", "h", 0.9],
  ["C=CCN(CC=C)C(=O)[C@@]1(c2cccs2)C[C@H]1CN", "h", 1.2]
]}

--- query ---
Short answer for "NC[C@@H]1C[C@@]1(C(=O)N1Cc2ccccc2C1)c1cccs1" : half-life was 2.3

* * *

Test: Tmax in Sprague-Dawley rat at 30 mg/kg, po
Type: ADME, organism-based
Parameters: dose 30 mg/kg, route oral
Conditions: in vivo
observedProperty: Tmax (min)
The answer is to be given in min; state only the numeric part.

Short answer for "C=CCN(CC=C)C(=O)[C@@]1(c2cccs2)C[C@H]1CN" : Tmax was 30

Short answer for "C#CCN(CC)C(=O)[C@@]1(c2cccs2)C[C@H]1CN" : Tmax was 102

Short answer for "C=C(F)CN(CC)C(=O)[C@@]1(c2cccs2)C[C@H]1CN" : Tmax was 24

Short answer for "NC[C@@H]1C[C@@]1(C(=O)N1Cc2ccccc2C1)c1cccs1" : Tmax was 66

* * *

Assay: AUC in mouse at 5 mg/kg, iv or 30 mg/kg, po
Assay type: ADME, organism-based
Conditions: plasma
observedProperty: AUC

Short answer for "C=CCN(CC=C)C(=O)[C@@]1(c2cccs2)C[C@H]1CN.Cl" : AUC was 3020 ng·h/mL

* * *

Target: Transporter (Rattus norvegicus)
Sequence (Q63380 whole entry): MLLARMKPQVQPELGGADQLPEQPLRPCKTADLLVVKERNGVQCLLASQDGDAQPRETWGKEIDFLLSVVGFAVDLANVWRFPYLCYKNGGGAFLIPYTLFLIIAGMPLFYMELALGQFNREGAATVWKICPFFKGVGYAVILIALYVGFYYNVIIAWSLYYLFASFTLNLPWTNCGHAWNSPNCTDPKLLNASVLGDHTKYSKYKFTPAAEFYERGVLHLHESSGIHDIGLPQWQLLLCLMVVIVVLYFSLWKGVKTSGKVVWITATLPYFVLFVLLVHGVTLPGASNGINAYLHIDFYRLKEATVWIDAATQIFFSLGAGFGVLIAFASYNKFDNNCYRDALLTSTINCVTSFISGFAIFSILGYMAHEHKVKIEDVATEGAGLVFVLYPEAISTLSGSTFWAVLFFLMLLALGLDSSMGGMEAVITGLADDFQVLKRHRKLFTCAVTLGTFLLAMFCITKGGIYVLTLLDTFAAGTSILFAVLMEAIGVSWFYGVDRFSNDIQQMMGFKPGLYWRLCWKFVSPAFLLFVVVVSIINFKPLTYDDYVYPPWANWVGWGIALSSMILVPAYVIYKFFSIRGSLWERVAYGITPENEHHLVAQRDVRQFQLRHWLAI
observedProperty: IC50 (nM)
The answer is to be given in nM; state only the numeric part.

Short answer for CCN(CC)C(=O)C1(c2ccccc2)CC1CN (stereo unspecified) : IC50 was 100

* * *

Test: AUC in Sprague-Dawley rat at 5 mg/kg, iv
Type: ADME, organism-based
Set-up: dose 5 mg/kg, route intravenous
Conditions: plasma
observedProperty: AUC (ng·h/mL)
The answer is to be given in ng·h/mL; state only the numeric part.

{"columns": ["smilesRepresentation", "observedProperty", "reportedMeasurement"],
 "data": [
  ["C=CCN(CC=C)C(=O)[C@@]1(c2cccs2)C[C@H]1CN", "AUC", 721]
]}

Short answer for "C=C(F)CN(CC)C(=O)[C@@]1(c2cccs2)C[C@H]1CN" : AUC was 532

* * *

Quick reference for half-life among some compounds
Assay: Half life in Beagle dog at 5 mg/kg, iv or 30 mg/kg, po
Type: ADME, organism-based, Canis lupus familiaris
Conditions: in vivo
The answer is to be given in h; state only the numeric part.

{"columns": ["smilesRepresentation", "unitDescriptor", "half-life"],
 "data": [
  ["C=CCN(CC=C)C(=O)[C@@]1(c2cccs2)C[C@H]1CN.Cl", "h", 2.4]
]}

Short answer for "C=C(F)CN(CC)C(=O)[C@@]1(c2cccs2)C[C@H]1CN.Cl" : half-life was 3.5

* * *

Assay: Ratio of drug level in brain to plasma in Sprague-Dawley rat at 30 mg/kg, po after 1 hr
Format: ADME, organism-based
Parameters: dose 30 mg/kg, route oral
observedProperty: Kp at 1 h

In the examples that follow, each entry is paired with its recorded Kp at 1 h.
{"columns": ["smilesRepresentation", "Kp at 1 h"],
 "data": [
  ["C=CCN(CC=C)C(=O)[C@@]1(c2cccs2)C[C@H]1CN", 0.6],
  ["NC[C@@H]1C[C@@]1(C(=O)N1Cc2ccccc2C1)c1cccs1", 1],
  ["C=C(F)CN(CC)C(=O)[C@@]1(c2cccs2)C[C@H]1CN", 0.73]
]}

Short answer for "C#CCN(CC)C(=O)[C@@]1(c2cccs2)C[C@H]1CN" : Kp at 1 h was 0.3

* * *

Assay: Volume of distribution in Sprague-Dawley rat at 2.5 mg/kg, iv
Type: ADME, organism-based
Set-up: dose 2.5 mg/kg, route intravenous
Conditions: in vivo
observedProperty: Vd (L/kg)
The answer is to be given in L/kg; state only the numeric part.

Short answer for "CCN(CC)C(=O)[C@]1(c2ccccc2)C[C@H]1CN" : Vd was 4.3

* * *

Test: Metabolic stability in rat liver microsomes assessed as systemic clearance at 1 uM after 15 mins by LC-MS/MS analysis
Format: ADME, Microsome
Label key: Condition met means CLhep predicted at 1 µM under 50 mL/min/kg; Condition not met means CLhep predicted at 1 µM of 50 mL/min/kg or more.

{"columns": ["compound", "assignedClass"],
 "data": [
  ["C=CCN(Cc1nccs1)C(=O)[C@@]1(c2cccs2)C[C@H]1CN", "Condition met"]
]}

IN: Field: below-cutoff. Rule: recorded CLhep predicted at 1 µM strictly less than 50 mL/min/kg. Subject: "C=CCN(C(=O)[C@@]1(c2cccs2)C[C@H]1CN)C1CC1"
OUT: Condition not met

IN: Field: below-cutoff. Rule: recorded CLhep predicted at 1 µM strictly less than 50 mL/min/kg. Subject: "C#CCN(CC#C)C(=O)[C@@]1(c2cccs2)C[C@H]1CN"
OUT: Condition met

IN: Field: below-cutoff. Rule: recorded CLhep predicted at 1 µM strictly less than 50 mL/min/kg. Subject: "NC[C@@H]1C[C@@]1(C(=O)N1Cc2ccccc2C1)c1cccs1"
OUT: Condition not met

IN: Field: below-cutoff. Rule: recorded CLhep predicted at 1 µM strictly less than 50 mL/min/kg. Subject: CCN(CC)C(=O)C1(c2ccccc2)CC1CN (stereo unspecified)
OUT: Condition met

IN: Field: below-cutoff. Rule: recorded CLhep predicted at 1 µM strictly less than 50 mL/min/kg. Subject: "C=CCN(CC)C(=O)[C@@]1(c2cccs2)C[C@H]1CN"
OUT: Condition not met

* * *

Biological target: Sodium-dependent serotonin transporter (Rattus norvegicus)
Sequence (P31652 whole entry): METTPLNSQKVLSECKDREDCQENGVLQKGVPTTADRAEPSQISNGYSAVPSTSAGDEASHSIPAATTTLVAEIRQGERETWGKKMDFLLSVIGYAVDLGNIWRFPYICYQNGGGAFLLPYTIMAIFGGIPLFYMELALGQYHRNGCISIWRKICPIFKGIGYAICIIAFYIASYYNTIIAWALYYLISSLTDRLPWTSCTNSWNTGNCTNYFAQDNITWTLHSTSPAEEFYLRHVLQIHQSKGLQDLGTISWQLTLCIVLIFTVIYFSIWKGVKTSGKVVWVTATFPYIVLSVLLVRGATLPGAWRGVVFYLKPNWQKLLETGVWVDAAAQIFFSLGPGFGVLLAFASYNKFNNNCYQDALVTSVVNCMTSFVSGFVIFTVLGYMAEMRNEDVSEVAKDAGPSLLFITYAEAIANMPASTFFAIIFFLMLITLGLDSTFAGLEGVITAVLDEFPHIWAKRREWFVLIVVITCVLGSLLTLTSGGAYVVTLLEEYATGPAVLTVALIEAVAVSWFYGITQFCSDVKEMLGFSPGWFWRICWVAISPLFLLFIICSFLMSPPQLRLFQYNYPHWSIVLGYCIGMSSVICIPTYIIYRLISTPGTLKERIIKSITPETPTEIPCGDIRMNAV
Format: cell-based, HEK293
observedProperty: pIC50
The meaning of pIC50 here: minus log10 of the concentration in molar units.

In the examples that follow, each entry is paired with its recorded pIC50.
{"columns": ["molecule", "pIC50"],
 "data": [
  ["CCN(CC)C(=O)C1(c2ccccc2)CC1CN (configuration not stated)", 7.33],
  ["C=CCN(CC=C)C(=O)[C@@]1(c2cccs2)C[C@H]1CN", 7.96],
  ["C#CCN(CC)C(=O)[C@@]1(c2cccs2)C[C@H]1CN", 6.80],
  ["C=CCN(CC)C(=O)[C@@]1(c2ccsc2)C[C@H]1CN", 7.57]
]}

Short answer for "CCN(CC)C(=O)[C@]1(c2ccccc2)C[C@H]1CN" : pIC50 was 7.55

Short answer for "NC[C@@H]1C[C@@]1(C(=O)N1Cc2ccccc2C1)c1cccs1" : pIC50 was 7.60

Short answer for "C=C(F)CN(CC)C(=O)[C@@]1(c2cccs2)C[C@H]1CN" : pIC50 was 6.80

* * *

pIC50: −log10 of the molar value.
The listing below reports pIC50 for compounds tested on Sodium-dependent dopamine transporter (Homo sapiens, UniProt Q01959).
Sequence (Q01959 whole entry): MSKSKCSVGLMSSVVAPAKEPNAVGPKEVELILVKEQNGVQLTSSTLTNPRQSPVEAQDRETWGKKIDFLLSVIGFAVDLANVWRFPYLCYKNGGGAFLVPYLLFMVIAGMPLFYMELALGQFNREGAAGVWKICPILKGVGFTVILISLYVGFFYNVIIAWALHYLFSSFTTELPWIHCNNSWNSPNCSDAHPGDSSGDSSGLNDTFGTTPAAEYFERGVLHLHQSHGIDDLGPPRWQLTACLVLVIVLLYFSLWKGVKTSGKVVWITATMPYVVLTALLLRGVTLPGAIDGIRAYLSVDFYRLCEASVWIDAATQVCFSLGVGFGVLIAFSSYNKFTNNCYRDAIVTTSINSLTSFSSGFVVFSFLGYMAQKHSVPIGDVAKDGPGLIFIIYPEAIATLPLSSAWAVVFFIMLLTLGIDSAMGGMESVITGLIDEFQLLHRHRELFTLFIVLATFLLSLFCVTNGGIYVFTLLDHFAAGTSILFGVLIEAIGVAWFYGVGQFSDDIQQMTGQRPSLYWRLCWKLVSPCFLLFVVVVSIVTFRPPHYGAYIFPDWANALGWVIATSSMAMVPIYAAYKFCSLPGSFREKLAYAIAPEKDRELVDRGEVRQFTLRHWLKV

In the examples that follow, each entry is paired with its recorded pIC50.
{"columns": ["smilesRepresentation", "targetUnderTest", "observedProperty", "reportedMeasurement"],
 "data": [
  ["C=CCN(CC=C)C(=O)[C@@]1(c2cccs2)C[C@H]1CN", "Sodium-dependent dopamine transporter (Homo sapiens, UniProt Q01959)", "pIC50", "< 5.00"],
  ["NC[C@@H]1C[C@@]1(C(=O)N1Cc2ccccc2C1)c1cccs1", "Sodium-dependent dopamine transporter (Homo sapiens, UniProt Q01959)", "pIC50", 5.26],
  ["C#CCN(CC)C(=O)[C@@]1(c2cccs2)C[C@H]1CN", "Sodium-dependent dopamine transporter (Homo sapiens, UniProt Q01959)", "pIC50", "< 5.00"],
  ["C=CCN(C(=O)[C@@]1(c2cccs2)C[C@H]1CN)C1CC1", "Sodium-dependent dopamine transporter (Homo sapiens, UniProt Q01959)", "pIC50", "< 5.00"],
  ["C=C(F)CN(CC)C(=O)[C@@]1(c2cccs2)C[C@H]1CN", "Sodium-dependent dopamine transporter (Homo sapiens, UniProt Q01959)", "pIC50", "< 5.00"]
]}

--- query ---
Measured pIC50 (Sodium-dependent dopamine transporter (Homo sapiens, UniProt Q01959)), entry "C=CCN(Cc1nccs1)C(=O)[C@@]1(c2cccs2)C[C@H]1CN" : < 5.00

* * *

Test: Cmax in Beagle dog at 5 mg/kg, iv or 30 mg/kg, po
Type: ADME, organism-based, Canis lupus familiaris
Details: in vivo
observedProperty: Cmax (ng/mL)
The answer is to be given in ng/mL; state only the numeric part.

Short answer for "C=C(F)CN(CC)C(=O)[C@@]1(c2cccs2)C[C@H]1CN.Cl" : Cmax was 5570

Entry source: ChEMBL document CHEMBL1152288
